# Run Description: ADME solubility determination in PBS at pH 2.0 and pH 7.4
# Format: physicochemical
# Test Context: phosphate buffered saline, 25 °C, pH 2, aqueous buffer, thermodynamic from solid, PBS pH 2.0, 25° C., read-out: Solubility at pH 2.0
Test Readout: solubility at 24 h

Solved entries (count: 3):
COc1ccc(C(F)(F)F)nc1-c1ccc(CN2C(=O)CCn3nc(-c4c(Cl)cnn4C(C)C)cc32)cc1Cl : < 10 µM
CCn1cc(C(F)(F)F)nc1-c1ccc([C@@H](C)N2C(=O)CCn3nc(-c4c(OC)ncnc4C4CC4)cc32)cc1 : ≥ 10 µM
COc1ncnc(C2CC2)c1-c1nc2n(n1)CCC(=O)N2[C@H](C)c1ccc(-n2nc(C(F)(F)F)cc2C)c(F)c1 : ≥ 10 µM

Fill in solubility at 24 h for record CCn1cc(C(F)(F)F)nc1-c1ccc([C@H](C)n2c(=O)ccn3nc(-c4c(OC)ncnc4C4CC4)nc23)cc1F
≥ 10 µM

###

# Run Description: ADME solubility determination in PBS at pH 2.0 and pH 7.4
# Assay type: physicochemical
# Test Context: phosphate buffered saline, 25 °C, pH 7.4, aqueous buffer, thermodynamic from solid, PBS pH 7.4, 25° C., read-out: Solubility at pH 7.4
Test Readout: solubility at 24 h

Solved entries (count: 2):
CCn1cc(C(F)(F)F)nc1-c1ccc(N[C@H]2CCCn3nc(-c4c(Cl)cnn4C(C)C)cc32)cc1 (single isomer, unassigned) : < 10 µM
CCn1cc(C(F)(F)F)nc1-c1ccc(N[C@@H]2CCCn3nc(-c4c(Cl)cnn4[C@H](C)CF)cc32)cc1 (single isomer, unassigned) : < 10 µM

Fill in solubility at 24 h for record CC(C)n1ncc(Cl)c1-c1cc2n(n1)CCC(=O)N2Cc1ccc(-c2cn(C)c(C(F)(F)F)n2)c(F)c1
< 10 µM

###

In this section, each of the compounds is paired with its reported solubility at 24 h.
# Run Description: ADME solubility determination in PBS at pH 2.0 and pH 7.4
# Format: physicochemical
# Test Context: phosphate buffered saline, 25 °C, pH 2, aqueous buffer, thermodynamic from solid, PBS pH 2.0, 25° C., read-out: Solubility at pH 2.0

COc1ncnc(C2CC2)c1-c1cc2n(n1)CCC(=O)N2Cc1ccc(-n2nc(C(F)(F)F)cc2C)c(F)c1 : < 10 µM

Fill in solubility at 24 h for record COc1ncnc(C2CC2)c1-c1nn2c(c1Cl)N(Cc1ccc(-c3nc(C(F)(F)F)cn3C)cc1)C(=O)CC2
< 10 µM

Fill in solubility at 24 h for record COc1ncnc(C2CC2)c1-c1cc2n(n1)CCC(=O)N2[C@H](C)c1ccc(-c2nc(C(F)(F)F)cn2C(C)C)cc1
≥ 10 µM

Fill in solubility at 24 h for record CCn1cc(C(F)(F)F)nc1-c1ccc(CNC2CCCn3nc(-c4c(Cl)cnn4C(C)C)cc32)cc1 (centres unmarked)
≥ 10 µM

Fill in solubility at 24 h for record COc1ncnc(C2CC2)c1-c1cc2n(n1)CCCC2Nc1ccc(-c2nc(C(F)(F)F)cn2C(C)CF)cc1 (centres unmarked)
≥ 10 µM

Fill in solubility at 24 h for record COc1cc(CN2C(=O)CCn3nc(-c4c(Cl)cnn4C(C)C)nc32)ccc1-c1nc(C(F)(F)F)cn1C(C)C
< 10 µM

Fill in solubility at 24 h for record CC(C)n1ncc(Cl)c1-c1cc2n(n1)CC(C)(O)C(=O)N2Cc1ccc(-c2nc(C(F)(F)F)cn2C)cc1 (centres unmarked)
< 10 µM

Fill in solubility at 24 h for record CCn1cc(C(F)(F)F)nc1-c1ccc([C@H](C)N2C(=O)CCn3nc(-c4c(Cl)cnn4C(C)C)nc32)cc1
< 10 µM

Fill in solubility at 24 h for record COc1ncnc(C2CC2)c1-c1cc2n(n1)CCCN2Cc1ccc(-c2nc(C(F)(F)F)cn2C)cc1
≥ 10 µM

Fill in solubility at 24 h for record CCn1cc(C(F)(F)F)nc1-c1ccc(CN2C(=O)CCn3nc(-c4c(Cl)cnn4C(C)C)cc32)cc1
< 10 µM

Fill in solubility at 24 h for record CCn1cc(C(F)(F)F)nc1-c1ccc([C@H](C)N2C(=O)CCn3nc(-c4c(Cl)cnn4C(C)C)nc32)cc1F
< 10 µM

Fill in solubility at 24 h for record CC(C)n1ncc(Cl)c1-c1cc2n(n1)CCC(=O)N2Cc1ccc(-c2nc(C(F)(F)F)cn2C)c(F)c1
< 10 µM

Fill in solubility at 24 h for record CCn1cc(C(F)(F)F)nc1-c1ccc(CN2C(=O)CCn3nc(-c4c(OC)ncnc4C4CC4)nc32)c(OC)c1F
≥ 10 µM

Fill in solubility at 24 h for record CCn1cc(C(F)(F)F)nc1-c1ccc([C@H](C)n2c(=O)ccn3nc(-c4c(OC)ncnc4C4CC4)cc23)cc1F (single isomer, unassigned)
< 10 µM

###

# Run Description: Liver microsomal metabolic stability, rat liver microsomes (RLM)
# Test Context: rat, liver microsomes, t1/2 (min) in RLM, 1 μM compound, 1 mg/mL microsomes, NADPH
In this section, each of the molecules is paired with its reported half-life at 1 μM.

CCn1cc(C(F)(F)F)nc1-c1ccc(N[C@H]2CCCn3nc(-c4c(OC)ncnc4C4CC4)cc32)cc1 (single isomer, unassigned) : > 25 min
CCn1cc(C(F)(F)F)nc1-c1ccc([C@@H](C)N2C(=O)CCn3nc(-c4c(Cl)cnn4C(C)C)nc32)cc1 : < 25 min
CCn1cc(C(F)(F)F)nc1-c1ccc(CN2C(=O)CCn3nc(-c4c(Cl)cnn4C4(COC)CC4)cc32)cc1 : < 25 min
CCn1cc(C(F)(F)F)nc1-c1ccc(O[C@H]2CCCn3nc(-c4c(OC)ncnc4C4CC4)cc32)cc1F (single isomer, unassigned) : > 25 min
COc1cccc(C)c1-c1cc2n(n1)CCCN2Cc1ccc(-c2nc(C(F)(F)F)cn2C)cc1 : < 25 min
CCn1cc(C(F)(F)F)nc1-c1ccc([C@H](C)N2C(=O)CCn3nc(-c4c(OC)ncnc4C4CC4)nc32)cc1 : > 25 min
CCn1cc(Cl)nc1-c1ccc(CN2C(=O)CCn3nc(-c4c(Cl)cnn4C(C)C)cc32)cc1 : < 25 min
COc1c(CN2C(=O)CCn3nc(-c4c(Cl)cnn4C(C)C)nc32)ccc(-c2nc(C(F)(F)F)cn2C(C)C)c1F : > 25 min

Let us move to another entry and its half-life at 1 μM.
Fill in half-life at 1 μM for record CCn1cc(C(F)(F)F)nc1-c1ccc(CN2CC(N)Cn3nc(-c4c(Cl)cnn4C(C)C)cc32)cc1F (centres unmarked)
< 25 min

###

# Target Of Assay: USP1/UAF1 enzyme (Homo sapiens)
# Sequence (O94782 whole entry): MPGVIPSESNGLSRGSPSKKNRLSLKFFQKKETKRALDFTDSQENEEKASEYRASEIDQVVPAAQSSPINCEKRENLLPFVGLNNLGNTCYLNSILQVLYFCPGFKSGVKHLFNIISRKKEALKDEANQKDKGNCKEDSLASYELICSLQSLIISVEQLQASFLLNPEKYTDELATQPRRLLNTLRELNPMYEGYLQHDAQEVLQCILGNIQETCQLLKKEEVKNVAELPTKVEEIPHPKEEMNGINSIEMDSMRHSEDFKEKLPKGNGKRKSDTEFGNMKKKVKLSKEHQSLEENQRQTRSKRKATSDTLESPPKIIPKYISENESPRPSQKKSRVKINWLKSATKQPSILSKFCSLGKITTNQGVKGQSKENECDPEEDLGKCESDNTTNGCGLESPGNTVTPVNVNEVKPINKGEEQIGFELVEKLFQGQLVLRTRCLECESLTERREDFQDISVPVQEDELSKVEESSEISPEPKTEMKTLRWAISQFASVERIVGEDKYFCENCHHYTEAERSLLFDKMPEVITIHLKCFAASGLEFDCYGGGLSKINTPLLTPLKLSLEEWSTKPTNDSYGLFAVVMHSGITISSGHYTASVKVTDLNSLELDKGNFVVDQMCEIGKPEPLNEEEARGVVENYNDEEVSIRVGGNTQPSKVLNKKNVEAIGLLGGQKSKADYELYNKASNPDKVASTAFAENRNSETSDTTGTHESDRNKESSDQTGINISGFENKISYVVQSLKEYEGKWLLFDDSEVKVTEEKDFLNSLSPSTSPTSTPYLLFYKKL
# Sequence (Q8TAF3 whole entry partner): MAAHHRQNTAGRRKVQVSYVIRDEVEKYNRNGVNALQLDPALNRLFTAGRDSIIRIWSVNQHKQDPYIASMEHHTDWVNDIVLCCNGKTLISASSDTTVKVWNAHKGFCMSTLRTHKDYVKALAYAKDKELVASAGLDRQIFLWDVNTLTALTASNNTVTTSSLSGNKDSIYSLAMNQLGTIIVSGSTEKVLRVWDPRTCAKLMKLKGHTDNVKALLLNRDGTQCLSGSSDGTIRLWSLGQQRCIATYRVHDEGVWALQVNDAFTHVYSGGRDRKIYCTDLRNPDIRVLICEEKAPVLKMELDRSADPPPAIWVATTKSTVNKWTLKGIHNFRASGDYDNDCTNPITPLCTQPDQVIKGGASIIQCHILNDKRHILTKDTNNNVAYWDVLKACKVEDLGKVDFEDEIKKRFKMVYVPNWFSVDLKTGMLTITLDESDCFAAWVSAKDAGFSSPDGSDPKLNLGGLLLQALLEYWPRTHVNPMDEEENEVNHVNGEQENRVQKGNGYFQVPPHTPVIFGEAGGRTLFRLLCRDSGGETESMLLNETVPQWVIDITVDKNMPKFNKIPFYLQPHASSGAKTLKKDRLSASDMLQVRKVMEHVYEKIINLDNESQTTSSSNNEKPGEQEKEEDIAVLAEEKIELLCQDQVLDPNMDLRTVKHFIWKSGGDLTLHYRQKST
# Run Description: USP1/UAF1 deubiquitination assay (ubiquitin-rhodamine 110 substrate)
# Test Context: read-out: USP1 IC50 (Ub-Rho)
In this section, each of the compounds is paired with its reported IC50.

COc1cc(C(F)(F)F)nn1-c1ccc(CN2C(=O)CCn3nc(-c4c(Cl)cnn4C(C)C)cc32)cc1F : < 0.1 µM
CCn1cc(C(F)(F)F)nc1-c1ccc(CC2c3cc(-c4c(OC)ncnc4C4CC4)nn3CCN2C)cc1 (stereo not shown) : < 0.1 µM
COc1ncnc(C2CC2)c1-c1cc2n(n1)CCC[C@@H]2Oc1ccc(-c2nc(C(F)(F)F)cn2C(C)CF)cc1 (stereo partly shown) : < 0.1 µM
CCn1cc(C(F)(F)F)nc1-c1ccc(CN2C(=O)C(NC(C)=O)Cn3nc(-c4c(Cl)cnn4C(C)C)cc32)cc1 (stereo not shown) : 0.1 to 0.5 µM
COc1ncnc(C2CC2)c1-c1nc2n(n1)CCC(=O)N2[C@@H](C)c1ccc(-c2nc(C(F)(F)F)cn2C(C)C)cc1 : 0.1 to 0.5 µM

Fill in IC50 for record CCn1cc(C(F)(F)F)nc1-c1ccc(CN2C(=O)CCn3nc(-c4c(Cl)cnn4C(C)C)c(N)c32)cc1
0.1 to 0.5 µM

Fill in IC50 for record CCn1cc(C(F)(F)F)nc1-c1ccc([C@H](C)N2C(=O)CCn3nc(-c4c(OC)ncnc4C4CC4)nc32)cc1Cl [Example 212]
< 0.1 µM

###

In this section, each of the molecules is paired with its reported half-life at 1 μM.
# Run Description: Liver microsomal metabolic stability, human liver microsomes (HLM)
# Test Context: human, liver microsomes

COc1c(CN2C(=O)CCn3nc(-c4c(OC(F)F)ncnc4C4CC4)nc32)ccc(-c2nc(C(F)(F)F)cn2C(C)C)c1F : > 25 min
CCn1cc(C#N)nc1-c1ccc(NC2CCCn3nc(-c4c(Cl)cnn4C(C)C)cc32)cc1 (stereo not shown) : < 25 min
CCn1cc(C(F)(F)F)nc1-c1ccc(CN2C(=O)CCn3nc(-c4c(Cl)cnn4C4(COC)CC4)cc32)cc1F : < 25 min
COc1ncnc(C2CC2)c1-c1nc2n(n1)CCC(=O)N2Cc1ccc(-c2nc(C(F)(F)F)cn2C)c(F)c1 : > 25 min
CCn1cc(C(F)(F)F)nc1-c1ccc(C(C)N2CCCn3nc(-c4c(Cl)cnn4C(C)C)cc32)cc1 (stereo not shown) : < 25 min

Fill in half-life at 1 μM for record CCn1cc(C(F)(F)F)nc1-c1ccc([C@H](C)n2c(=O)ccn3nc(-c4c(OC)ncnc4C4CC4)cc23)cc1F (single isomer, unassigned)
> 25 min

Fill in half-life at 1 μM for record CCn1cc(C(F)(F)F)nc1-c1ccc(CN2C(=O)CCn3nc(-c4c(OC)ncnc4C4CC4)nc32)cc1
> 25 min
